Reference source: PubChem BioAssay (NCATS)

- System: Zika virus NS2B-NS3 protease (unlinked complex)
- assay-method-text: Primary screen GU Rhodamine qHTS for Zika virus inhibitors: Unlinked NS2B-NS3 protease assay (AID 1347159); further: nearly all actives have a fitted effect of over 60% in size
- test-conditions: Recombinant ZIKV NS2B-NS3 protease, Rhodamine110 substrate fluorescence; series mostly up to 107 µM
Records with an inconclusive call do not appear. The source made the active and inactive calls. The call rests on the fitted dose curve; in most records, active means well fitted inhibition curve with a large enough effect; inconclusive means small, poorly fitted or top-dose-only effect; inactive means no such curve, though single readings can be large or run the other way.
I would appreciate it if you answered using one of these outcomes: True for active, False for inactive

Record excerpt, results attached:
[
  {
    "molecule": "CC(C)(C)c1ccc(-c2nc3c(N4CCN(Cc5ccc6nccnc6c5)CC4)cccc3[nH]2)cc1",
    "category-label": "False"
  },
  {
    "molecule": "COc1ccccc1C(=O)Nc1cc2c(cc1N1CCCC1)n(C)c(=O)n2C",
    "category-label": "False"
  },
  {
    "molecule": "CC(C)NC(=O)COc1cccc(-c2nc(Nc3ccc4[nH]ncc4c3)c3ccccc3n2)c1",
    "category-label": "False"
  },
  {
    "molecule": "COc1ccc([C@H]2Cc3cccc(O)c3C(=O)O2)cc1OC",
    "category-label": "False"
  },
  {
    "molecule": "C[C@@H]1O[C@@H](O[C@H]2CC[C@@]3(C)C(CC[C@]4(C)C3CC=C3[C@@H]5CC(C)(C)CC[C@]5(C(=O)O[C@@H]5O[C@H](CO)[C@@H](O)[C@H](O)[C@H]5O)CC[C@]34C)[C@]2(C)CO)[C@H](O)[C@H](O[C@@H]2O[C@H](CO)[C@@H](O)[C@H](O)[C@H]2O)[C@H]1O (stereo not given in full)",
    "category-label": "False"
  },
  {
    "molecule": "CCN(Cc1ccccc1)C(=O)Cn1c(=O)n(C)c2cnc(-c3ccccc3)nc21",
    "category-label": "False"
  },
  {
    "molecule": "COc1ccc(Cl)c(Nc2ncnc3cc(OCC4CCN(C)CC4)c(OC)cc23)c1",
    "category-label": "False"
  },
  {
    "molecule": "NC(=O)c1nc(Nc2ccccc2)sc1NC(=O)C1CCCCC1",
    "category-label": "False"
  },
  {
    "molecule": "C1=C/COCc2cc(ccc2OCCN2CCCC2)Nc2nccc(n2)-c2cccc(c2)COC/1",
    "category-label": "False"
  },
  {
    "molecule": "CC(C)(C)c1ccc(C(=O)Nc2cc(Cl)c(Br)cc2C(=O)O)cc1",
    "category-label": "True"
  }
]

Just curious, what result did O=C(Nc1ccn(Cc2ccc(O)cc2C(F)(F)F)n1)c1c(F)cccc1F get here?
False

###

- assay-method-text: Primary qHTS for inhibitors of nuclear receptor binding SET domain protein 2 (NSD2) in an RCH-ACV wild type WT cells (2C) (AID 1645877); further: nearly all actives have a fitted effect of over 70% in size
- test-conditions: RCH-ACV (leukaemia line) NSD2 WT (2C) viability, CellTiter-Glo, 72 h; series mostly up to 44.9 µM
- Source text: Assay Provider: Jonathan D. Licht, MD University of Florida College of Medicine, Gainesville, FL Mutations in epigenetic regulators are common in relapsed pediatric acute lymphoblastic leukemia (ALL). Here, we uncovered the mechanism underlying the relapse of ALL driven by an activating mutation of the NSD2 histone methyltransferase (p.E1099K). […] Correction of this mutation restored glucocorticoid sensitivity. […]
Results filed as inconclusive are left out. Active and inactive are the calls of the source. Calls come from the whole dose curve; as a rule, active = well fitted inhibition curve with a large enough effect; inconclusive = small, poorly fitted or top-dose-only effect; inactive = no such curve, though single readings can be large or run the other way.
// allowed return values: active, inactive

Solved entries:
[
  {
    "compound": "C/C=C(\\C)C(=O)O[C@H]1C=C(CO)C(=O)[C@H](OC(C)=O)[C@H]1C(C)C",
    "category-label": "active"
  },
  {
    "compound": "O=C(NCCN1CCOCC1)c1cc2c(Oc3ccc(NC(=O)C4(C(=O)Nc5ccc(F)cc5)CC4)cc3)ccnc2[nH]1",
    "category-label": "active"
  }
]

Hi, do you know how Cn1ncnc1[C@@H]1c2n[nH]c(=O)c3cc(F)cc(c23)N[C@H]1c1ccc(F)cc1 came out in this test?
active

What outcome does the record of this test show for O=C(NCc1cccs1)c1cc2nc(-c3ccco3)cc(C(F)(F)Cl)n2n1 ?
inactive

For C[C@H]1[C@H](/C=C/c2ccc(-c3ccccc3C#N)cn2)[C@@H]2[C@@H](C)OC(=O)[C@@H]2C[C@@H]1C , what call appears in the results of this test?
active

How was Cn1cc(-c2ccc(F)c(C(F)(F)F)c2)nc1C1CCN(c2ncnc3[nH]ncc23)CC1 classified in this test?
inactive

Hi, do you know how COc1cc(S(C)(=O)=O)ccc1Nc1nc2ccc(-c3ccc(NC(=O)[C@H](C)c4ccc(F)cc4)cc3)cn2n1 came out in this test?
active

###

- assay-method-text: qHTS assay for small molecule activators of the human pregnane X receptor (PXR) signaling pathway (AID 720659); further: 0% is about no effect
- test-conditions: DPX-2 HepG2 CYP3A4-luciferase, 24 h; series mostly up to 92.3 µM
Activity calls are given as the source filed them. How the calls were made is not given here.
attribute-measured: outcome

Study these solved cases before continuing.
[
  {
    "smiles-input": "CCCCCCCCCC(=O)O",
    "attribute-measured": "outcome",
    "observed-measurement": "inactive"
  },
  {
    "smiles-input": "COC(C)=O",
    "attribute-measured": "outcome",
    "observed-measurement": "inactive"
  },
  {
    "smiles-input": "O=C(O)CC(O)(CC(=O)O)C(=O)O",
    "attribute-measured": "outcome",
    "observed-measurement": "inactive"
  },
  {
    "smiles-input": "CN(C)Cc1ccccc1",
    "attribute-measured": "outcome",
    "observed-measurement": "inactive"
  }
]

Any idea what outcome was measured for C=Cc1ccccc1 ?
inactive

###

- Test system: Tov-21-G
- assay-method-text: Primary qHTS to identify gynecologic anti-cancer compounds using libraries of approved drugs and bioactive compounds (AID 1345084); further: nearly all actives have a fitted effect of over 55% in size
- test-conditions: Gynecologic cancer cell panel viability, ATPlite luminescence, 48 h; series mostly up to 57.5 µM
Inconclusive results are not listed. Active and inactive are the calls of the source. Calls come from the whole dose curve; as a rule, active = well fitted cell-killing curve with a large enough effect; inconclusive = small, poorly fitted or top-dose-only effect, or effect the other way; inactive = flat fitted curve, though single readings scatter.
Assign a class; possible classes are 1 (yes) for active, 0 (no) for inactive

Past entries and their recorded results:
[
  {
    "compound": "Cc1cc(F)ccc1[C@H]1C[C@@H](N2CCN3C(=O)CC[C@H]3C2)CCN1C(=O)N(C)[C@H](C)c1cc(C(F)(F)F)cc(C(F)(F)F)c1",
    "category-label": "0 (no)"
  },
  {
    "compound": "CNCc1cc(-c2ccccc2F)n(S(=O)(=O)c2cccnc2)c1",
    "category-label": "0 (no)"
  },
  {
    "compound": "CC(=O)Nc1cccc(Nc2ncnc(N3CCC(OCc4ccc(OC(F)(F)F)cc4)CC3)n2)c1C",
    "category-label": "0 (no)"
  }
]

Please examine the following record next.
Hello, I am checking results. What call was entered for CCOc1cc(C(C)(C)C)ccc1C1=NC(C)(c2ccc(Cl)cc2)C(C)(c2ccc(Cl)cc2)N1C(=O)N1CCN(CCCS(C)(=O)=O)CC1 (centres undefined) ?
1 (yes)

###

- assay-method-text: Primary redox qHTS assay for identification of artifact compounds. (AID 1845223);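 further: 0% = DMSO and 100% = reference compound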
- test-conditions: Amplex Red/HRP redox cycling with DTT, fluorescence; series mostly up to 53.8 µM
Results filed as inconclusive are left out. The source made the active and inactive calls. The call rests on the fitted dose curve; in most records, active means well fitted activation curve with a large enough effect; inconclusive means small, poorly fitted or top-dose-only effect; inactive means flat fitted curve, though single readings scatter.
attribute-measured: redox activity (% of DA3003)

Solved entries:
[
  {
    "compound": "O=C([C@@H]1CCCN(c2ccc3[nH]c(C4(n5cc(Cl)cn5)CC4)nc3n2)C1)N1CCCC1",
    "redox activity (% of DA3003)": "inactive"
  },
  {
    "compound": "CC(=O)OC1CC(C)(C(=O)O)CC2C3=CC(=O)C4C5(C)CCC(OC6OC(C(=O)O)C(O)C(O)C6OC6OC(C(=O)O)C(O)C(O)C6O)C(C)(C)C5CCC4(C)C3(C)CCC12C (centres undefined)",
    "redox activity (% of DA3003)": "5.43% [at 11.5 µM] (inactive)"
  },
  {
    "compound": "C=C1C(=O)OC2CC3(C)C(O)C(=O)C=C(C)C3CC12 (centres undefined)",
    "redox activity (% of DA3003)": "inactive"
  },
  {
    "compound": "C=C(C=O)[C@]1(O)C[C@@]2(C)C(=CC1=O)C=C[C@H](OC(=O)/C=C/C=C/[C@H](C)CC)[C@@H]2C",
    "redox activity (% of DA3003)": "inactive"
  },
  {
    "compound": "CC1(CO)CC2C(O)C3=C(CC(C)(O)C2C1)C(=O)OC3 (centres undefined)",
    "redox activity (% of DA3003)": "inactive"
  },
  {
    "compound": "COc1ccc(C2=NC(c3ccc(Cl)cc3)C(c3ccc(Cl)cc3)N2C(=O)N2CCNC(=O)C2)c(OC(C)C)c1 (centres undefined)",
    "redox activity (% of DA3003)": "inactive"
  },
  {
    "compound": "CCCCCCCOc1cc2c(cc1/C(C)=C/c1ccc(C(=O)O)cc1)C(C)(C)CCS2(=O)=O",
    "redox activity (% of DA3003)": "inactive"
  },
  {
    "compound": "COc1cc2nc(C3CC3)nc(N3CCN(c4ccccc4OC)CC3)c2cc1OC",
    "redox activity (% of DA3003)": "inactive"
  },
  {
    "compound": "CCOC(=O)c1ccc(OCCC2CCN(c3ccc(C)nn3)CC2)cc1",
    "redox activity (% of DA3003)": "inactive"
  },
  {
    "compound": "O=C(O)CCc1nccc2c1[nH]c1ccccc12",
    "redox activity (% of DA3003)": "inactive"
  }
]

Please report redox activity (% of DA3003) for every entry that follows.
1. C=C(C)[C@@H]1CC=C(COC(=O)NC(=O)c2ncn3c(=O)n(C)nnc23)CC1
2. CCOC(=O)c1cnn(-c2ccccc2)c1NC(=O)c1cc2nc(-c3ccco3)cc(C(F)(F)Cl)n2n1
3. O=C(Nc1ccc(-n2nc(C(F)(F)F)cc2C(F)(F)F)cc1)c1ccncc1F
4. Cc1ccc(CNc2ncnc3ccc(-c4ccc(CO)o4)cc23)o1
5. COCc1c(Cl)ccc2c1CC[C@H]2c1ncc[nH]1
6. C=C1C(=O)O[C@@H]2C(OC(=O)/C(C)=C\C)/C(C)=C\C(=O)/C=C(\C)C[C@H](O)[C@@H]12 (some centres undefined)
7. CNC1CN(c2ccc3c(=O)c(C(=O)O)cn(-c4nccs4)c3n2)CC1OC (centres undefined)

inactive
inactive
inactive
inactive
inactive
inactive
-6.95% [at 11.5 µM] (inactive)

Please give redox activity (% of DA3003) for each item listed below.
1. COc1cc2c(c(OC)c1CC=C(C)C)C[C@H](c1ccc(O)c(CC=C(C)C)c1O)CO2
2. O=C(Nc1ccnc(NC(=O)C2CC2)c1)c1c(Cl)cccc1Cl

["inactive", "inactive"]
